Where do the numbers come from? From patent US11986532B2.

Examples of compounds with documented Dmax follow.
- assay.target: BCL6 (Homo sapiens, UniProt P41182)
- Construct: endogenous in cells; host or cells: T47D breast cancer epithelial cells
- method.summary: Immunofluorescence protocol for high content imaging of BCL6 (degradation) in T47D cells, 3 days compound treatment
- Assay type: cell-based
- experimental.conditions: T47D cells, 3 days compound treatment, read-out: Mean Dmax (%)** category

Some solved cases for reference:
compound	assay.target	measured.endpoint	observed
CNC(=O)COc1cc2cc(Nc3nc(N4CCC(O[C@H]5C[C@H](N6CC[C@@H](c7ccc8c(c7F)CN([C@H]7CCC(=O)NC7=O)C8=O)C(C)(C)C6)C5)CC4)ncc3Cl)ccc2n(C(C)C)c1=O	BCL6 (Homo sapiens, UniProt P41182)	Dmax	≥ 70%
CNC(=O)COc1cc2cc(Nc3nc(N4CCC(O[C@H]5C[C@H](N6CCN(c7ccc8c(c7C)C(=O)N(C7CCC(=O)NC7=O)C8=O)C[C@@H]6C)C5)CC4)ncc3Cl)ccc2n(C(C)C)c1=O (some centres unmarked)	BCL6 (Homo sapiens, UniProt P41182)	Dmax	≥ 70%
CNC(=O)COc1cc2cc(Nc3nc(N4CCC(CN5CC6(CCN(c7cc8c(cc7F)C(=O)N(C7CCC(=O)NC7=O)C8)CC6)C5)CC4)ncc3Cl)ccc2n(C(C)C)c1=O (centres unmarked)	BCL6 (Homo sapiens, UniProt P41182)	Dmax	≥ 70%
CNC(=O)COc1cc2cc(Nc3nc(N4CCC(O[C@H]5C[C@H](N6CCN(c7ccc8c(c7F)CN(C7CCC(=O)NC7=O)C8=O)C[C@@H]6C)C5)CC4)ncc3Cl)ccc2n(C(C)C)c1=O (some centres unmarked)	BCL6 (Homo sapiens, UniProt P41182)	Dmax	≥ 70%
CNC(=O)COc1cc2cc(Nc3nc(N4CCC5(CCN(CC6(F)CCN(c7ccc(F)c8c7CN(C7CCC(=O)NC7=O)C8=O)CC6)CC5)CC4)ncc3Cl)ccc2n(C(C)C)c1=O (centres unmarked)	BCL6 (Homo sapiens, UniProt P41182)	Dmax	50 to 70%
CNC(=O)COc1cc2cc(Nc3nc(N4CCN(C(C)(C)C5CCN(c6cc7c(cc6F)C(=O)N(C6CCC(=O)NC6=O)C7)CC5)CC4)ncc3Cl)ccc2n(C(C)C)c1=O (centres unmarked)	BCL6 (Homo sapiens, UniProt P41182)	Dmax	50 to 70%
CNC(=O)COc1cc2cc(Nc3nc(N4CCC(CN5CC6(CCN(c7cccc8c7C(=O)N(C7CCC(=O)NC7=O)C8=O)CC6(F)F)C5)CC4)ncc3Cl)ccc2n(C(C)C)c1=O (centres unmarked)	BCL6 (Homo sapiens, UniProt P41182)	Dmax	50 to 70%
CCNC(=O)COc1cc2cc(Nc3nc(N4CCC(CN5CCC6(CC5)CN(c5ccc7c(c5)C(=O)N(C5CCC(=O)NC5=O)C7=O)C6)CC4)ncc3Cl)ccc2n(C(C)C)c1=O (centres unmarked)	BCL6 (Homo sapiens, UniProt P41182)	Dmax	≥ 70%
CNC(=O)COc1cc2cc(Nc3nc(N4CCC(O[C@H]5C[C@H](N6CCN(c7ccc8c(n7)CN(C7CCC(=O)NC7=O)C8=O)[C@@H](C)C6)C5)CC4)ncc3Cl)ccc2n(C(C)C)c1=O (some centres unmarked)	BCL6 (Homo sapiens, UniProt P41182)	Dmax	≥ 70%
CCc1c(N2CCN([C@H]3C[C@H](OC4CCN(c5ncc(Cl)c(Nc6ccc7c(c6)cc(OCC(=O)NC)c(=O)n7C(C)C)n5)CC4)C3)CC2)ccc2c1C(=O)N(C1CCC(=O)NC1=O)C2=O (some centres unmarked)	BCL6 (Homo sapiens, UniProt P41182)	Dmax	≥ 70%

Problem: Retrieve Dmax measured for CNC(=O)COc1cc2cc(Nc3nc(N4CCC(CN5CCC6(CC5)CN(c5ccc7c(c5)C(=O)N(C5CCC(=O)NC5=O)C7=O)C6(C)C)CC4)ncc3Cl)ccc2n(C(C)C)c1=O (centres unmarked) and print it.
Solution: 50 to 70%

Problem: Retrieve Dmax measured for CNC(=O)COc1cc2cc(Nc3nc(N4CCC(OC5CCC6(CC5)CN(c5ccc7c(c5)CN(C5CCC(=O)NC5=O)C7=O)C6)CC4)ncc3Cl)ccc2n(C(C)C)c1=O (centres unmarked) and print it.
Solution: 50 to 70%

Problem: Retrieve Dmax measured for CNC(=O)COc1cc2cc(Nc3nc(N4CCC(O[C@H]5C[C@H](N6CCC(c7ccc8c(c7F)CN(C7CCC(=O)NC7=O)C8=O)CC6)C5)CC4)ncc3Cl)ccc2n(C2CCCC2)c1=O (some centres unmarked) and print it.
Solution: ≥ 70%

Problem: Retrieve Dmax measured for CNC(=O)COc1cc2cc(Nc3nc(N4CCC(OC5CN([C@H]6CC[C@H](c7ccc8c(c7Cl)CN(C7CCC(=O)NC7=O)C8=O)CC6)C5)CC4)ncc3Cl)ccc2n(C(C)C)c1=O (some centres unmarked) and print it.
Solution: 50 to 70%

Problem: Retrieve Dmax measured for CNC(=O)COc1cc2cc(Nc3nc(N4CCN(CC5CCN(c6ccc7c(c6)CN(C6CCC(=O)NC6=O)C7=O)CC5)CC4)ncc3Cl)ccc2n(C)c1=O (centres unmarked) and print it.
Solution: 50 to 70%

Problem: Retrieve Dmax measured for CNC(=O)COc1cc2cc(Nc3nc(N4CCC5(CCN(CC6(F)CCN(c7cccc8c7CN(C7CCC(=O)NC7=O)C8=O)CC6)CC5)CC4)ncc3Cl)ccc2n(C(C)C)c1=O (centres unmarked) and print it.
Solution: 50 to 70%

Problem: Retrieve Dmax measured for CNC(=O)COc1cc2cc(Nc3nc(N4CCN(CC5CC6(CCN(c7cccc8c7CN(C7CCC(=O)NC7=O)C8=O)CC6)C5)CC4)ncc3Cl)ccc2n(C(C)C)c1=O (centres unmarked) and print it.
Solution: ≥ 70%

Problem: Retrieve Dmax measured for CC[C@@H]1CN([C@H]2C[C@H](OC3CCN(c4ncc(Cl)c(Nc5ccc6c(c5)cc(OCC(=O)NC)c(=O)n6C(C)C)n4)CC3)C2)CCN1c1ccc2c(c1Cl)CN(C1CCC(=O)NC1=O)C2=O (some centres unmarked) and print it.
Solution: ≥ 70%

Problem: Retrieve Dmax measured for CNC(=O)COc1cc2cc(Nc3nc(N4CCC(O[C@H]5CC[C@H](Oc6cccc7c6C(=O)N(C6CCC(=O)NC6=O)C7=O)CC5)CC4)ncc3Cl)ccc2n(C(C)C)c1=O (some centres unmarked) and print it.
Solution: 50 to 70%

Problem: Retrieve Dmax measured for CNC(=O)COc1cc2cc(Nc3nc(N4CCC(CN5CC6(CCN(c7cc8c(c(OC)c7)C(=O)N(C7CCC(=O)NC7=O)C8)CC6)C5)CC4)ncc3Cl)ccc2n(C(C)C)c1=O (centres unmarked) and print it.
Solution: 50 to 70%
